# ASSAY: solvent given as SMILES
# RUN CONDITIONS: in CCCCCCCCCCO
OBSERVED PROPERTY: solvation free energy, 298 K (kcal/mol)

{"COMPOUND": "Cc1cc(C)c(C)cc1C", "OBSERVED PROPERTY": "solvation free energy, 298 K", "READOUT UNIT": "kcal/mol", "MEASUREMENT": -6.84}
{"COMPOUND": "COc1ccc(C(=O)O)cc1", "OBSERVED PROPERTY": "solvation free energy, 298 K", "READOUT UNIT": "kcal/mol", "MEASUREMENT": -11.4}
{"COMPOUND": "O=C(O)c1cc([N+](=O)[O-])ccc1Cl", "OBSERVED PROPERTY": "solvation free energy, 298 K", "READOUT UNIT": "kcal/mol", "MEASUREMENT": -12.4}
{"COMPOUND": "c1ccc2cc3ccccc3cc2c1", "OBSERVED PROPERTY": "solvation free energy, 298 K", "READOUT UNIT": "kcal/mol", "MEASUREMENT": -10.5}
{"COMPOUND": "NC(=O)c1ccccc1O", "OBSERVED PROPERTY": "solvation free energy, 298 K", "READOUT UNIT": "kcal/mol", "MEASUREMENT": -11.6}
{"COMPOUND": "CCCCCCCC", "OBSERVED PROPERTY": "solvation free energy, 298 K", "READOUT UNIT": "kcal/mol", "MEASUREMENT": -4.53}
{"COMPOUND": "O=C(O)c1ccc(Cl)c([N+](=O)[O-])c1", "OBSERVED PROPERTY": "solvation free energy, 298 K", "READOUT UNIT": "kcal/mol", "MEASUREMENT": -12.9}
{"COMPOUND": "CCO", "OBSERVED PROPERTY": "solvation free energy, 298 K", "READOUT UNIT": "kcal/mol", "MEASUREMENT": -4.1}
{"COMPOUND": "CCC(C)O (centres undefined)", "OBSERVED PROPERTY": "solvation free energy, 298 K", "READOUT UNIT": "kcal/mol", "MEASUREMENT": -5.31}
{"COMPOUND": "c1ccc2c(c1)Sc1ccccc1S2", "OBSERVED PROPERTY": "solvation free energy, 298 K", "READOUT UNIT": "kcal/mol", "MEASUREMENT": -11.6}
{"COMPOUND": "CCCCCCCCCCCO", "OBSERVED PROPERTY": "solvation free energy, 298 K", "READOUT UNIT": "kcal/mol", "MEASUREMENT": -10.3}
{"COMPOUND": "FC(F)(F)F", "OBSERVED PROPERTY": "solvation free energy, 298 K", "READOUT UNIT": "kcal/mol", "MEASUREMENT": 1.36}
{"COMPOUND": "O=C(O)c1cccc([N+](=O)[O-])c1", "OBSERVED PROPERTY": "solvation free energy, 298 K", "READOUT UNIT": "kcal/mol", "MEASUREMENT": -11.8}
{"COMPOUND": "CCOCC", "OBSERVED PROPERTY": "solvation free energy, 298 K", "READOUT UNIT": "kcal/mol", "MEASUREMENT": -2.93}
{"COMPOUND": "OC(Cl)CCCl (centres undefined)", "OBSERVED PROPERTY": "solvation free energy, 298 K", "READOUT UNIT": "kcal/mol", "MEASUREMENT": -7}
{"COMPOUND": "O=S(=O)(c1ccccc1)c1ccccc1", "OBSERVED PROPERTY": "solvation free energy, 298 K", "READOUT UNIT": "kcal/mol", "MEASUREMENT": -12.8}
{"COMPOUND": "CCCCCCO", "OBSERVED PROPERTY": "solvation free energy, 298 K", "READOUT UNIT": "kcal/mol", "MEASUREMENT": -6.99}
{"COMPOUND": "O=[N+]([O-])c1cccc2ccccc12", "OBSERVED PROPERTY": "solvation free energy, 298 K", "READOUT UNIT": "kcal/mol", "MEASUREMENT": -9.94}
{"COMPOUND": "Nc1ccc(C(=O)O)cc1", "OBSERVED PROPERTY": "solvation free energy, 298 K", "READOUT UNIT": "kcal/mol", "MEASUREMENT": -13.3}

----------
# ASSAY: solvent given as SMILES
# RUN CONDITIONS: in CN1CCCCC1=O
Here, each record is paired with measured solvation free energy, 298 K data.
OBSERVED PROPERTY: solvation free energy, 298 K (kcal/mol)

{"SMILES TEXT": "CCCCC", "OBSERVED PROPERTY": "solvation free energy, 298 K", "MEASUREMENT": -2.16}
{"SMILES TEXT": "C1CCOC1", "OBSERVED PROPERTY": "solvation free energy, 298 K", "MEASUREMENT": -3.92}
{"SMILES TEXT": "CC(C)=O", "OBSERVED PROPERTY": "solvation free energy, 298 K", "MEASUREMENT": -3.82}
{"SMILES TEXT": "CCC(C)(C)OC", "OBSERVED PROPERTY": "solvation free energy, 298 K", "MEASUREMENT": -3.86}
{"SMILES TEXT": "CCO", "OBSERVED PROPERTY": "solvation free energy, 298 K", "MEASUREMENT": -5.13}
{"SMILES TEXT": "CCOC(C)=O", "OBSERVED PROPERTY": "solvation free energy, 298 K", "MEASUREMENT": -4.16}
{"SMILES TEXT": "CCCCCCC", "OBSERVED PROPERTY": "solvation free energy, 298 K", "MEASUREMENT": -3.41}
{"SMILES TEXT": "CC(=O)CC(C)C", "OBSERVED PROPERTY": "solvation free energy, 298 K", "MEASUREMENT": -5.12}
{"SMILES TEXT": "CC#N", "OBSERVED PROPERTY": "solvation free energy, 298 K", "MEASUREMENT": -4.65}
{"SMILES TEXT": "CCCCCC", "OBSERVED PROPERTY": "solvation free energy, 298 K", "MEASUREMENT": -2.78}
{"SMILES TEXT": "CCOCC", "OBSERVED PROPERTY": "solvation free energy, 298 K", "MEASUREMENT": -2.77}
{"SMILES TEXT": "CCCCCCCC", "OBSERVED PROPERTY": "solvation free energy, 298 K", "MEASUREMENT": -4.02}

----------
# ASSAY: solvent given as SMILES
# RUN CONDITIONS: in CCCCOCCO
Here, each record is paired with measured solvation free energy, 298 K data.
OBSERVED PROPERTY: solvation free energy, 298 K (kcal/mol)

{"SMILES TEXT": "NC(=O)c1ccccc1O", "MEASUREMENT": -12.6}
{"SMILES TEXT": "c1ccc2cc3ccccc3cc2c1", "MEASUREMENT": -10.8}
{"SMILES TEXT": "c1ccc(-c2ccccc2)cc1", "MEASUREMENT": -8.65}
{"SMILES TEXT": "COc1ccc(C(=O)O)cc1", "MEASUREMENT": -12.2}
{"SMILES TEXT": "c1cc2ccc3cccc4ccc(c1)c2c34", "MEASUREMENT": -12.4}

----------
# ASSAY: solvent given as SMILES
# RUN CONDITIONS: in S=C=S
Here, each record is paired with measured solvation free energy, 298 K data.

{"SMILES TEXT": "CC(C)C(C)C(C)C", "solvation free energy, 298 K [kcal/mol]": -5.06}
{"SMILES TEXT": "CCCCC", "solvation free energy, 298 K [kcal/mol]": -3.29}
{"SMILES TEXT": "C[N+](=O)[O-]", "solvation free energy, 298 K [kcal/mol]": -3.25}
{"SMILES TEXT": "CCO", "solvation free energy, 298 K [kcal/mol]": -2.71}
{"SMILES TEXT": "CC(C)CCC(C)C", "solvation free energy, 298 K [kcal/mol]": -4.94}
{"SMILES TEXT": "CCCCCCCC", "solvation free energy, 298 K [kcal/mol]": -5.53}
{"SMILES TEXT": "CCCCCCC", "solvation free energy, 298 K [kcal/mol]": -4.76}
{"SMILES TEXT": "CCCCCCCCC", "solvation free energy, 298 K [kcal/mol]": -6.17}
{"SMILES TEXT": "CC(C)=O", "solvation free energy, 298 K [kcal/mol]": -3.39}
{"SMILES TEXT": "CCCCCC", "solvation free energy, 298 K [kcal/mol]": -4.03}

// data source = the CombiSolv-Exp solvation set (Vermeire and Green 2021)
